Biological target: Cad1 (UniProt P24813)
Sequence: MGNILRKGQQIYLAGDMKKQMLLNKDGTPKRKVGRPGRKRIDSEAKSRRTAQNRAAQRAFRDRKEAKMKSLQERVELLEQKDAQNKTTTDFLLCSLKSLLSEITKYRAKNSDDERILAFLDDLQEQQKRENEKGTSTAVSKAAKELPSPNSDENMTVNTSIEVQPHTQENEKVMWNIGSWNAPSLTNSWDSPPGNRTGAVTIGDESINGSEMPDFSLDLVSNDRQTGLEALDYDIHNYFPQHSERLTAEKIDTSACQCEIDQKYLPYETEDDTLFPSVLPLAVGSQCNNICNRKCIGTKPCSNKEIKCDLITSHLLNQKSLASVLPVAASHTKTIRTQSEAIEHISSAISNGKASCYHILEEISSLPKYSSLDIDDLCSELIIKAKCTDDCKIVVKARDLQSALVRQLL
Experiment: PBM E-score (8-mer binding enrichment) (E-score (-0.5 to 0.5)); higher = stronger / more preferred TF binding
Conditions: protein concentration: 100 nM; construct: GST-full length
Whole data set: some 33,000 sequences, median “E-score (-0.5 to 0.5)” near -0.0014, cut for the highest 2% near 0.25. The entries come from a sample that favours the highest values as a whole.

{"entry-sequence": "CCGCGCGA", "PBM E-score": 0.295}
{"entry-sequence": "ATGGCCAG", "PBM E-score": 0.273}
{"entry-sequence": "GCATAAGC", "PBM E-score": 0.254}
{"entry-sequence": "ATGACTAC", "PBM E-score": -0.181}
{"entry-sequence": "CCCACTCA", "PBM E-score": -0.193}
{"entry-sequence": "GTTATTTA", "PBM E-score": 0.153}
{"entry-sequence": "AAAGTCGA", "PBM E-score": -0.0137}
{"entry-sequence": "AGTATTAA", "PBM E-score": 0.0712}
{"entry-sequence": "GGAAAGAA", "PBM E-score": -0.177}
{"entry-sequence": "AAATCCTC", "PBM E-score": -0.0802}
{"entry-sequence": "AAGGTTGC", "PBM E-score": -0.00934}
{"entry-sequence": "TGAAAGAA", "PBM E-score": 0.253}
{"entry-sequence": "ATTAGAGC", "PBM E-score": 0.041}
{"entry-sequence": "CCAACGCA", "PBM E-score": 0.0411}
{"entry-sequence": "AATTATTA", "PBM E-score": 0.249}
{"entry-sequence": "CAACTCGA", "PBM E-score": 0.175}
{"entry-sequence": "CCAGCGTA", "PBM E-score": -0.0528}
{"entry-sequence": "CCGACAAG", "PBM E-score": -0.0166}
{"entry-sequence": "CTCAATTC", "PBM E-score": 0.066}
{"entry-sequence": "CCGCGAAA", "PBM E-score": 0.0147}
{"entry-sequence": "AAGCTCGC", "PBM E-score": 0.224}
{"entry-sequence": "AAGCTCGA", "PBM E-score": 0.263}
{"entry-sequence": "CGTATTAG", "PBM E-score": 0.165}
{"entry-sequence": "GTGACTAA", "PBM E-score": 0.37}
{"entry-sequence": "ATATTAGA", "PBM E-score": 0.197}
{"entry-sequence": "AAATCGGA", "PBM E-score": 0.171}
{"entry-sequence": "AATTATCG", "PBM E-score": 0.247}
{"entry-sequence": "AATCGTGC", "PBM E-score": 0.276}
{"entry-sequence": "ACGTCGGG", "PBM E-score": -0.269}
{"entry-sequence": "ACTCTAAG", "PBM E-score": -0.094}
{"entry-sequence": "GGCTGTAC", "PBM E-score": -0.0764}
{"entry-sequence": "GCGCGAAA", "PBM E-score": 0.308}
{"entry-sequence": "ACGAAATA", "PBM E-score": 0.201}
{"entry-sequence": "ATGCCAAT", "PBM E-score": -0.0122}
{"entry-sequence": "AACCCCAT", "PBM E-score": -0.107}
{"entry-sequence": "AATCGTGA", "PBM E-score": 0.0886}
{"entry-sequence": "CATTCAGG", "PBM E-score": -0.0709}
{"entry-sequence": "GTTGTTAA", "PBM E-score": 0.259}
{"entry-sequence": "ATTGTTAA", "PBM E-score": 0.0122}
{"entry-sequence": "CTTAAAGA", "PBM E-score": -0.0851}
{"entry-sequence": "ATGACTAA", "PBM E-score": 0.377}
{"entry-sequence": "ACTTTCTA", "PBM E-score": -0.028}
{"entry-sequence": "CACTTAAC", "PBM E-score": 0.00927}
{"entry-sequence": "GTTATTGA", "PBM E-score": 0.159}
{"entry-sequence": "ACACCCGA", "PBM E-score": 0.134}
{"entry-sequence": "ACATAAGC", "PBM E-score": 0.107}
{"entry-sequence": "GTGACTGA", "PBM E-score": 0.157}
{"entry-sequence": "TAATCGGA", "PBM E-score": 0.152}
{"entry-sequence": "CGATCACG", "PBM E-score": 0.273}
{"entry-sequence": "AGATCACA", "PBM E-score": -0.0498}
{"entry-sequence": "ATGGCCAT", "PBM E-score": 0.252}
{"entry-sequence": "CTGTTGGC", "PBM E-score": -0.202}
{"entry-sequence": "ATGGCCAC", "PBM E-score": -0.21}
{"entry-sequence": "TAACTCGA", "PBM E-score": 0.275}
{"entry-sequence": "CCGCGAGA", "PBM E-score": -0.102}
{"entry-sequence": "ATGGCCTG", "PBM E-score": 0.0685}
{"entry-sequence": "GACCACGA", "PBM E-score": 0.0423}
{"entry-sequence": "CCTAGCAC", "PBM E-score": -0.199}
{"entry-sequence": "AAACCCAT", "PBM E-score": 0.261}
{"entry-sequence": "CCGAAATA", "PBM E-score": 0.253}
{"entry-sequence": "ATAGAATC", "PBM E-score": -0.129}
{"entry-sequence": "ACTTATCT", "PBM E-score": 0.0827}
{"entry-sequence": "GAACTCGA", "PBM E-score": 0.0968}
{"entry-sequence": "TGTCGCAA", "PBM E-score": -0.137}
{"entry-sequence": "CAATCGGA", "PBM E-score": 0.259}
{"entry-sequence": "GTTGCAGA", "PBM E-score": -0.0187}
{"entry-sequence": "CCGCGCGC", "PBM E-score": 0.144}
{"entry-sequence": "ATATAAGA", "PBM E-score": 0.22}
{"entry-sequence": "CAGCTTCA", "PBM E-score": 0.0676}
{"entry-sequence": "GTATTAGA", "PBM E-score": 0.26}
{"entry-sequence": "ACTTACGG", "PBM E-score": 0.0069}
{"entry-sequence": "CGATCACA", "PBM E-score": 0.204}
{"entry-sequence": "AAACCCAG", "PBM E-score": 0.0892}
{"entry-sequence": "CTTGTTAA", "PBM E-score": -0.0916}
{"entry-sequence": "AGAAAGAA", "PBM E-score": 0.0147}
{"entry-sequence": "GCCAGGGA", "PBM E-score": -0.103}
{"entry-sequence": "GCGAAATA", "PBM E-score": -0.0552}
{"entry-sequence": "GACCTCCC", "PBM E-score": -0.247}
{"entry-sequence": "GTCTAAGA", "PBM E-score": 0.151}
{"entry-sequence": "CAGCGCTC", "PBM E-score": 0.153}
{"entry-sequence": "ATCGATGA", "PBM E-score": 0.13}
{"entry-sequence": "AATTATCA", "PBM E-score": 0.266}
{"entry-sequence": "ACTAGAAT", "PBM E-score": 0.0557}
